Molecular target: hQC (Homo sapiens)
Construct: purchased R&D Systems (Minneapolis, MN, USA)
Assay: hQC inhibitory activity (fluorometric assay) and enzyme kinetics
Type: biochemical
value type: pIC50
pIC50 here: minus log base 10 of the concentration, concentration in moles per litre.

# compound C=CCc1ccc(O)c(-c2ccc(O)c(CC=C)c2)c1 [Honokiol (39), 3,5′-diallyl-4,2′-dihydroxybiphenyl] ; its pIC50 = 4.04

###

Target: hQC (Homo sapiens, UniProt Q16769)
Sequence (Q16769 29-361): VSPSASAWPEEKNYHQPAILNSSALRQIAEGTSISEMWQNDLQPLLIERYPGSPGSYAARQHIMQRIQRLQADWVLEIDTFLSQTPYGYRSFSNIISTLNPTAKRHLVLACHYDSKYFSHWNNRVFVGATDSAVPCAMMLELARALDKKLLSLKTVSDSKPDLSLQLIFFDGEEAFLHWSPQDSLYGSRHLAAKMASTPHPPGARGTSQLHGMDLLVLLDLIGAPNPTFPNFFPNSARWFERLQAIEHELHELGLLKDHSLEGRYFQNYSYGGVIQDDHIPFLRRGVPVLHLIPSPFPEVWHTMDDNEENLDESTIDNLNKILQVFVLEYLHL
value type: Ki (µM)
Output spec: scalar in µM, unitless text.

// C=CCc1ccc(O)c(-c2ccc(O)c(CC=C)c2)c1 [Honokiol (39), 3,5′-diallyl-4,2′-dihydroxybiphenyl] : Ki value = 49.4

###

Target: hBACE1 (Homo sapiens, UniProt P56817)
Sequence (P56817 46-501): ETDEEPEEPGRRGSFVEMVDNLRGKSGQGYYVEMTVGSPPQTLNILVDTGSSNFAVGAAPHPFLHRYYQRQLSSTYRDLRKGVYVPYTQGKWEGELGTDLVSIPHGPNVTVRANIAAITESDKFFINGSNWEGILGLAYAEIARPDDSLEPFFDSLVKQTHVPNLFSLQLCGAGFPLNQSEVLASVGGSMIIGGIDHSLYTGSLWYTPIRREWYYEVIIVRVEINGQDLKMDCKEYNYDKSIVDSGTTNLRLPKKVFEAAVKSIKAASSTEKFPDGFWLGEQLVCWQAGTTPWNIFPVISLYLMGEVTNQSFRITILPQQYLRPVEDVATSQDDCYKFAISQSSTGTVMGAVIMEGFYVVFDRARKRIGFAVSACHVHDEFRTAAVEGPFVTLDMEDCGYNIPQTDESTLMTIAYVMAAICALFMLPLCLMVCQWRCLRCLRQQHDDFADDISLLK
value type: pKi
// pKi is dimensionless: -log10 of concentration (M)

With hBACE1 (Homo sapiens, UniProt P56817) as the test system, C=CCc1ccc(O)c(-c2ccc(O)c(CC=C)c2)c1 [Honokiol (39), 3,5′-diallyl-4,2′-dihydroxybiphenyl] showed pKi of 4.56

###

Target: hQC (Homo sapiens)
Construct: purchased R&D Systems (Minneapolis, MN, USA)
Test: hQC inhibitory activity (fluorometric assay) and enzyme kinetics
Type: biochemical
Conditions: mean ± S.D. of triplicate experiments; read-out: IC50 hQC
value type: pIC50
Reminder that pIC50 means the negative base-10 logarithm of the concentration expressed in mol/L.

Let me check: Oc1ccc(/C=C/c2cc(O)cc(O)c2)cc1 [resveratrol, reference compound] , system hQC (Homo sapiens), measured pIC50 is 4.51

###

Target: UniProt P49841
value type: Ki (µM)
Report as a plain number; the unit µM is understood.

Ki for UniProt P49841 with input C=CCc1ccc(O)c(-c2ccc(O)c(CC=C)c2)c1 [Honokiol (39), 3,5′-diallyl-4,2′-dihydroxybiphenyl] equals 9.8

###

Molecular target: hGSK-3β (Homo sapiens)
Construct: purchased Promega (Madison, WI, USA)
Sequence (P49841 whole entry): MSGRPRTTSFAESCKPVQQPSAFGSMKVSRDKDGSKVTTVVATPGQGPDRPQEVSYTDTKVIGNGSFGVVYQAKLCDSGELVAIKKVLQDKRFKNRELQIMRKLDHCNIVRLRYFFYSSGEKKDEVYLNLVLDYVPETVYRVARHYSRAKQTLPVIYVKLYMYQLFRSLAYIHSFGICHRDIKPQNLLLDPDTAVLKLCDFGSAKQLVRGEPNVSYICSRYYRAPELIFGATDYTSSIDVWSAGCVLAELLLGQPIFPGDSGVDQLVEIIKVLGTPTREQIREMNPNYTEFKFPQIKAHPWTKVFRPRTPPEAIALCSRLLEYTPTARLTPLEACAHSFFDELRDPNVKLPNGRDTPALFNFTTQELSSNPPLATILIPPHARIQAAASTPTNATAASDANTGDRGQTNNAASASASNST
Experiment: hGSK-3β activity (ADP-Glo/Kinase-Glo assay) and enzyme kinetics
Type: biochemical
Conditions: mean ± S.D. of triplicate experiments; read-out: IC50 hGSK-3β
value type: pIC50
When answering, recall that pIC50 equals minus log10 of the concentration in mol/L, and write that number alone.

Tested on hGSK-3β (Homo sapiens), the item C[C@@H]1O[C@@H](OC[C@H]2O[C@@H](Oc3c(-c4ccc(O)c(O)c4)oc4cc(O)cc(O)c4c3=O)[C@H](O)[C@@H](O)[C@@H]2O)[C@H](O)[C@H](O)[C@H]1O [rutin, reference compound] showed pIC50 equal to 4.97

###

Molecular target: hGSK-3β (Homo sapiens)
Construct: purchased Promega (Madison, WI, USA)
Test: hGSK-3β activity (ADP-Glo/Kinase-Glo assay) and enzyme kinetics
Format: biochemical
value type: pIC50
Scale for pIC50: -log10 of concentration given in mol/L; no unit attached.

Just so you know, measured pIC50 for C=CCc1ccc(O)c(-c2ccc(O)c(CC=C)c2)c1 [Honokiol (39), 3,5′-diallyl-4,2′-dihydroxybiphenyl] came out at 5.17

###

Molecular target: hBACE1 (Homo sapiens, UniProt P56817)
Construct: purchased Invitrogen (Pan Vera, Madison, WI, USA)
Test: hBACE1 inhibitory activity (FRET assay) and enzyme kinetics
Type: biochemical
Details: mean ± S.D. of triplicate experiments; read-out: IC50 hBACE1
value type: IC50

Looking up C=CCc1ccc(O)c(-c2cc(CC=C)ccc2O)c1 [Magnolol (51), 5,5′-diallyl-2,2′-dihydroxybiphenyl] , I see its IC50 listed as > 100 µM

Entry source: paper PMC11477134
